All values here come from PubChem BioAssay.

- assay-name: RPMI8226 myeloma cell viability, profiling panel, resazurin fluorescence, basal, 24 h, PK04 Diversity Set (AID 1180);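 also: RPMI8826 multiple myeloma cell line at 5000 cells per well; test concentration not given here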
- experimental-setup: higher = more signal
Class (required): determined from z-score; valid ranges are low (below -0.7), mid (-0.7 to below 0.4), high (0.4 or more)

Use the examples below as a reference point.
C[C@]1(C(=O)O)c2ccccc2C(=O)N(Cc2ccccc2)[C@H]1c1ccc(CO)cc1	high
CCOC(=O)C[C@H]1[C@H](OC(=O)c2ccccc2-c2ccccc2)[C@@H](NC(=O)c2ccc3ccccc3n2)c2cc(OCCCO)ccc2N1C(=O)c1ccc2ccccc2n1	mid
O=C(O)[C@H](Cc1ccccc1)n1cc(-c2ccccn2)nn1	mid
C=C(C(=O)CC[C@H](OC(=O)c1cccnc1)c1ccc(CO)o1)C(C)C	low
CCCC[C@@H]1C[C@H]1[C@@H](NC(=O)c1cccnc1)c1ccc(-c2ccccc2)cc1	high
O=C1O[C@@H](c2ccccc2)[C@@H](c2ccccc2)N2[C@@H](c3ccc(O)cc3)[C@]3(C(=O)Nc4ccccc43)[C@@H](C(=O)Nc3nc4ccccc4s3)[C@H]12	low
CCOC(=O)C[C@H]1[C@H](OC(=O)c2ccc(C(=O)c3ccccc3)cc2)[C@@H](NC(=O)c2ccc3ccccc3c2)c2cc(OCCCO)ccc2N1C(=O)c1ccccc1	mid
COc1ccc([Si](C)(C)[C@H]2[C@H](CCn3cc([C@H](O)c4ccccc4)nn3)O[C@@]3(C(=O)N(Cc4ccc(N5CCC5=O)cc4)c4ccccc43)[C@@H]2C)cc1	mid
C=CCOC(=O)[C@@H]1[C@H]2C(=O)O[C@H](c3ccccc3)[C@H](c3ccccc3)N2[C@H](c2ccc(OCCOC(=O)[C@H]3C[C@H]4C(=O)N[C@@H](CC(C)C)C(=O)N4[C@H]3c3ccc(O)cc3)cc2)[C@@]12C(=O)Nc1ccc(I)cc12	high
CCN(CC)c1ccc(N2CC=CC34O[C@@H]5/C=C\CCC(C)OC(=O)C5[C@H]3C(=O)N(CCO)[C@@H]4C2=O)cc1 (some centres not stated)	low

Pick a category. Item: COC(=O)C(CC#Cc1ccc2c(c1)[C@]1(C(=O)N2)[C@H](C(=O)O)[C@H]2C(=O)O[C@H](c3ccccc3)[C@H](c3ccccc3)N2[C@@H]1c1ccccc1OCCO)C(=O)OC low

Now the compound C[N+](C)(C)CCCC[C@@H]1NC(=O)[C@@H]2C[C@H](C(=O)O)[C@H](c3ccc(O)cc3)N2C1=O mid

And then Cc1ccc(S[C@]2(C(=O)NC(C)C)CC(=O)N(Cc3ccccc3C(F)(F)F)[C@@H]2c2ccc(CO)cc2I)cc1 , what is it? low

Now give it for COc1cc2c(cc1OC)CN(C(=O)[C@H]1[C@@H]3C(=O)O[C@@H](c4ccccc4)[C@@H](c4ccccc4)N3[C@@H](c3ccc(OCCO)cc3)[C@]13C(=O)Nc1ccc(C#CC4(O)CCCCCC4)cc13)CC2 too. mid

Try the compound COc1ccc(C(O)C2C=CC3C(=O)N(Cc4ccccc4)C(=O)C3N2n2cnnc2)c2ccccc12 (configuration not stated) low

Here is the next compound: [N-]=[N+]=NCc1ccccc1C[C@@]1(C(=O)N2CCCCC2)N=C(c2ccc(OCCCO)cc2)O[C@@H]1c1ccccc1N=[N+]=[N-] low

Now try CCOc1cc(C(O)C2C=CC3C(=O)N(C4CCCCC4)C(=O)C3N2Nc2ccc(OC)cc2)ccc1O (configuration not stated) . high
